Origin of the recorded values: ChEMBL document CHEMBL1141087

Molecular target: Estrogen receptor (Homo sapiens, UniProt P03372)
Sequence (P03372 whole entry): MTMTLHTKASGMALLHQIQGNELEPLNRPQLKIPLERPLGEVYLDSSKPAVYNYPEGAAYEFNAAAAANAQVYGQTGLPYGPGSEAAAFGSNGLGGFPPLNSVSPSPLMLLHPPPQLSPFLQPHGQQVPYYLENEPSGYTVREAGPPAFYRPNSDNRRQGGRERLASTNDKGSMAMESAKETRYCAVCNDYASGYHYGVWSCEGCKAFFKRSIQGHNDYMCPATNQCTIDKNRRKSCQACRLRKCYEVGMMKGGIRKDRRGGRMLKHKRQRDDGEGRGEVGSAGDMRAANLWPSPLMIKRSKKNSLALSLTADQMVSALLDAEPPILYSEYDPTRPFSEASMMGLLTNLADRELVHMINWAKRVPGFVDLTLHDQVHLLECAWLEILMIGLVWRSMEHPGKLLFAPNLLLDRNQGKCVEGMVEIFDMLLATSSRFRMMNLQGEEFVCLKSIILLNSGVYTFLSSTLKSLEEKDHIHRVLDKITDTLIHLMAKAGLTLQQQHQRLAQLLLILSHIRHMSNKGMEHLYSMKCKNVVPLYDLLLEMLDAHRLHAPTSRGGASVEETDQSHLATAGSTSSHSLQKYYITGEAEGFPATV
property: pKi
Answers are plain numbers, as −log10 of the molar value.

Example cases with answers are listed next.
# input What pKi value was documented for this molecule, CCC1=C(c2ccc(O)cc2)C(C(=O)Nc2ccc(OCCN3CCCCC3)cc2)c2cc(O)ccc21 (centres undefined) ?
# output 6.74

# input What pKi value was documented for this molecule, `Oc1ccc(C2=C(c3ccc(O)cc3)c3ccc(O)cc3C2)cc1` ?
# output 8.07

For every listed record, write down its pKi.
1. Oc1ccc(C2=C(c3ccc(OCCN4CCCCC4)cc3)c3ccc(O)cc3C2)cc1
2. Oc1ccc(C2=C(c3ccc(C(F)(F)F)cc3)c3ccc(O)cc3C2)cc1

# output
[8.77, 8.68]
